Biological target: V-ATPase (Homo sapiens, UniProt P27449)
Construct: endogenous in cells; host or cells: primary CD4+ T cells (HIV ΔGPE infected) from donor PBMCs
Test: Lysosomal acidification (Lysotracker mean fluorescence intensity) as indicator of V-ATPase activity in primary CD4+ T cells
Assay type: cell-based
Procedure: Inhibition of HIV-Nef was measured by assessing its capacity to downmodulate MHC-I HLA-A2 on the surface of primary CD4+ T cells 24-hours after treatment with each compound. V-ATPase inhibition was assessed at the same time point using lysosomal acidification as an indicator of V-ATPase activity. This was measured using a flow cytometric assay that quantified Lysotracker mean fluorescence intensity as previously described (Painter et al., 2020). […]

COMPOUND: C/C=C/[C@H]1O[C@@](O)([C@@H](C)[C@H](O)[C@H](C)[C@H]2OC(=O)/C(OC)=C/C(C)=C/[C@@H](C)[C@@H](O)[C@@H](C)[C@@H](O)[C@H](C)C/C(C)=C/C=C/[C@@H]2OC)C[C@@H](O)[C@@H]1C [Compound 7, Concanamycin X]
QUALIFIER SIGN: =
IC50 (nM): 38

COMPOUND: C=CC(C)C(OC(=O)[C@@H](C)[C@H](O)[C@H](C)[C@H]1OC(=O)/C(OC)=C/C(C)=C/[C@@H](C)[C@@H](O)[C@@H](C)C/C(C)=C/C=C/[C@@H]1OC)C(C)C (some centres unmarked) [Compound S8]
QUALIFIER SIGN: >
IC50 (nM): 1000

COMPOUND: CCCCCCCCC(=O)O[C@@H]1C[C@](O)([C@@H](C)[C@H](O)[C@H](C)[C@H]2OC(=O)/C(OC)=C/C(C)=C/[C@@H](C)[C@@H](O)[C@@H](C)C/C(C)=C/C=C/[C@@H]2OC)O[C@H](C(C)C)[C@H]1C [Compound S11]
QUALIFIER SIGN: =
IC50 (nM): 150

COMPOUND: C/C=C/[C@H]1O[C@@](O)([C@@H](C)[C@H](O)[C@H](C)[C@H]2OC(=O)/C(OC)=C/C(C)=C/[C@@H](C)[C@@H](O)[C@@H](CC)[C@@H](OC(C)=O)[C@H](C)C/C(C)=C/C=C/[C@@H]2OC)C[C@@H](O[C@@H]2C[C@H](OC(C)=O)[C@@H](OC(C)=O)[C@H](C)O2)[C@@H]1C [Compound S49, 3′,4′,9-triaceyl CMC]
QUALIFIER SIGN: =
IC50 (nM): 11

COMPOUND: C/C=C/[C@H]1O[C@@](O)([C@@H](C)[C@H](O)[C@H](C)[C@H]2OC(=O)/C(OC)=C/C(C)=C/[C@@H](C)[C@@H](O)[C@@H](CC)[C@@H](O)[C@H](C)C/C(C)=C/C=C/[C@@H]2OC)C[C@@H](O)[C@@H]1C [Compound 6, Concanamycin F]
QUALIFIER SIGN: =
IC50 (nM): 5.8

COMPOUND: CO/C1=C\C(C)=C\[C@@H](C)[C@@H](O)[C@@H](C)C/C(C)=C/C=C/[C@H](OC)[C@@H]([C@@H](C)[C@@H](O)[C@H](C)[C@@]2(OC)C[C@@H](O)[C@H](C)C(C(C)C)O2)OC1=O (some centres unmarked) [Compound S4, Bafilomycin A2]
QUALIFIER SIGN: =
IC50 (nM): 24

COMPOUND: CC=CC1OC(O)(C(C)C(O)C(C)C2OC(=O)C(OC)=CC(C)=CC(C)C(O)C(CC)C(O)C(C)CC(C)=CC=CC2OC)CC(OC2CC(O)C(OC(N)=O)C(C)O2)C1C (centres unmarked) [Compound 1, Concanamycin A, reference compound]
QUALIFIER SIGN: =
IC50 (nM): 1.7

COMPOUND: CO/C1=C\C(C)=C\[C@@H](C)C(=O)[C@@H](C)C/C(C)=C/C=C/[C@H](OC)[C@@H]([C@@H](C)[C@@H](O)[C@H](C)[C@@]2(O)C[C@@H](O)[C@H](C)[C@@H](C(C)C)O2)OC1=O [Compound S17]
QUALIFIER SIGN: >
IC50 (nM): 1000

COMPOUND: CO/C1=C\C(C)=C\[C@@H](C)[C@@H](O)[C@@H](C)C/C(C)=C/C=C/[C@H](OC)[C@@H]([C@@H](C)[C@@H](O)[C@H](C)[C@@]2(O)C[C@@H](OC(=O)c3ccccc3)[C@H](C)[C@@H](C(C)C)O2)OC1=O [Compound S13]
QUALIFIER SIGN: =
IC50 (nM): 140

COMPOUND: C/C=C/[C@H]1O[C@@](O)([C@@H](C)[C@H](O)[C@H](C)[C@H]2OC(=O)/C(OC)=C/C(C)=C/[C@@H](C)[C@@H](O)[C@@H](CC)[C@@H](O)[C@H](C)C/C(C)=C/C=C/[C@@H]2OC)C[C@@H](O[C@@H]2C[C@H](OC(=O)CCCC)[C@@H](OC(N)=O)[C@H](C)O2)[C@@H]1C [Compound 8, 3-pentanoate Concanamycin A]
QUALIFIER SIGN: =
IC50 (nM): 11

COMPOUND: C/C=C/[C@H]1O[C@@](O)([C@@H](C)[C@H](O)[C@H](C)[C@H]2OC(=O)/C(OC)=C/C(C)=C/[C@@H](C)[C@@H](O)[C@@H](CC)[C@@H](O)[C@H](C)C/C(C)=C/C=C/[C@@H]2OC)C[C@@H](O[C@@H]2C[C@H](OC(C)=O)[C@@H](OC(N)=O)[C@H](C)O2)[C@@H]1C [Compound 14, 3′-Acetyl CMA]
QUALIFIER SIGN: =
IC50 (nM): 3.7

COMPOUND: C/C=C/[C@H]1O[C@@](O)([C@@H](C)[C@H](O)[C@H](C)[C@H]2OC(=O)/C(OC)=C/C(C)=C/[C@@H](C)[C@@H](O)[C@@H](C)[C@@H](O)[C@H](C)C/C(C)=C/C=C/[C@@H]2OC)C[C@@H](O[C@@H]2C[C@H](OC(C)=O)[C@@H](OC(N)=O)[C@H](C)O2)[C@@H]1C [Compound 12, 3′-Acetyl Concanamycin B]
QUALIFIER SIGN: =
IC50 (nM): 20

COMPOUND: C/C=C/[C@H]1O[C@@](O)([C@@H](C)[C@H](O)[C@H](C)[C@H]2OC(=O)/C(OC)=C/C(C)=C/[C@@H](C)[C@@H](O)[C@@H](CC)[C@@H](O)[C@H](C)C/C(C)=C/C=C/[C@@H]2OC)C[C@@H](OC(C)=O)[C@@H]1C [Compound S50, 23-Acetyl CMF]
QUALIFIER SIGN: =
IC50 (nM): 6.1

COMPOUND: C/C=C/[C@H]1O[C@@](O)([C@@H](C)[C@H](O)[C@H](C)[C@H]2OC(=O)/C(OC)=C/C(C)=C/[C@@H](C)[C@@H](O)[C@@H](CC)[C@@H](OC(C)=O)[C@H](C)C/C(C)=C/C=C/[C@@H]2OC)C[C@@H](O[C@@H]2C[C@H](OC(C)=O)[C@@H](OC(N)=O)[C@H](C)O2)[C@@H]1C [Compound 15, 3′,9-diacetyl CMA]
QUALIFIER SIGN: =
IC50 (nM): 7.9

# credit: patent US20260232713A1
